Every entry's value here was drawn from ChEMBL document CHEMBL1145081.

Target: UniProt P34975
Sequence (P34975 whole entry): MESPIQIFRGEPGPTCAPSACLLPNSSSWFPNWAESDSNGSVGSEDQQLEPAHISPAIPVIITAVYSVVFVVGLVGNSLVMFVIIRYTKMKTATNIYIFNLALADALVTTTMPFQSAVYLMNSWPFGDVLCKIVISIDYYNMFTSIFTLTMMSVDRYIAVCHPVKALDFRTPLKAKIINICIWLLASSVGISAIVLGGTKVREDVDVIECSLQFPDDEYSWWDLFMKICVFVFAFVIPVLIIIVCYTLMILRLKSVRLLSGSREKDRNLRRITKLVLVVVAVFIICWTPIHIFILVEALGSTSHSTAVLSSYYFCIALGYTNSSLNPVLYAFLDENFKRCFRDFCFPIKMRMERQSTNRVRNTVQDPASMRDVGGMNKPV
Assay: Inhibition of Forskolin-Stimulated Adenylyl Cyclase in CHO cells expressing Opioid receptor kappa 1
Format: functional, cell-based
Conditions: cho
Below, each entry is listed alongside its reported pEC50.
# pEC50 = -log10(concentration in molar units)

molecule.smiles: CC(C)C[C@H](NC(=O)[C@@](C)(Cc1ccccc1)NC(=O)CNC(=O)CNC(=O)[C@@H](N)Cc1ccc(O)cc1)C(=O)N[C@@H](CCCN=C(N)N)C(=O)N[C@@H](CCCN=C(N)N)C(=O)N[C@H](C)C(=O)N[C@@H](CCCN=C(N)N)C(=O)N1CCC[C@H]1C(=O)N[C@@H](CCCCN)C(N)=O
pEC50: 7.44

(Q) Output reported pEC50 of the molecule CC(C)C[C@H](NC(=O)[C@@H](Cc1ccccc1)NC(=O)CNC(=O)CNC(=O)[C@@H](N)Cc1ccc(O)cc1)C(=O)N[C@@H](CCCN=C(N)N)C(=O)N[C@@H](CCCN=C(N)N)C(=O)N[C@H](C)C(=O)N[C@@H](CCCN=C(N)N)C(=O)N1CCC[C@H]1C(=O)N[C@@H](CCCCN)C(N)=O on UniProt P34975.
(A) 8.91

(Q) Look up and report pEC50, with UniProt P34975 as system, for CC(C)C[C@H](NC(=O)[C@H](Cc1ccccc1)N(C)C(=O)CNC(=O)CNC(=O)[C@@H](N)Cc1ccc(O)cc1)C(=O)N[C@@H](CCCN=C(N)N)C(=O)N[C@@H](CCCN=C(N)N)C(=O)N[C@H](C)C(=O)N[C@@H](CCCN=C(N)N)C(=O)N1CCC[C@H]1C(=O)N[C@@H](CCCCN)C(N)=O
(A) 8.45

(Q) State the measured pEC50 (UniProt P34975) of CC(C)C[C@H](NC(=O)[C@@H](CCc1ccccc1)NC(=O)CNC(=O)CNC(=O)[C@@H](N)Cc1ccc(O)cc1)C(=O)N[C@@H](CCCN=C(N)N)C(=O)N[C@@H](CCCN=C(N)N)C(=O)N[C@H](C)C(=O)N[C@@H](CCCN=C(N)N)C(=O)N1CCC[C@H]1C(=O)N[C@@H](CCCCN)C(N)=O
(A) 8.28
